# TGT: human RXFP1 (Homo sapiens, UniProt Q9HBX9)
# TEST METHOD NOTES: RXFP1 Hu cAMP (Test A)
# Type: cell-based
# Set-up: expressed in transfected cells; host or cells: Jump-In T-REx CHO-K1 cells (ThermoFisher), induced with 10 ng/ml doxycycline for 24 h
# APPLIED CONDITIONS: RXFP1 Hu cAMP; read-out: Test A EC50
METRIC NAME: EC50 (µM)
Respond numerically; units are µM and should not be typed.

Example entries and their recorded answers appear below.
- COMPOUND: "COc1cc(F)c(O[C@H]2CC[C@@](C)(C(N)=O)CC2)cc1C(=O)N[C@@H]1[C@H]2CC[C@H](C2)[C@@H]1C(=O)NCC(C)(C)C"
  EC50, µM: 0.16
- COMPOUND: "COc1cc(F)c(O[C@H]2CC[C@@](CO)(C(=O)O)CC2)cc1C(=O)N[C@@H]1[C@H]2CC[C@H](C2)[C@@H]1C(=O)NCC1(C(F)(F)F)CCC1"
  EC50, µM: 0.057
- COMPOUND: "COc1cc(F)c(O[C@H]2CC[C@@](C)(C(=O)O)CC2)cc1C(=O)N[C@@H]1COCC[C@@H]1C(=O)Nc1cccc(S(=O)(=O)C(F)(F)F)c1 (racemic) [Example 340]"
  EC50, µM: 1.8

Write down the reported EC50 of COc1cc(F)c(OC2CCC(C)(C(=O)O)CC2)cc1C(=O)NC1C2CCC(CC2)C1C(=O)NCC1(C)CCC1 (single isomer, unassigned) [Example 542] , test system: human RXFP1 (Homo sapiens, UniProt Q9HBX9).
0.011

---

Measured pEC50 accompanies every entry in the list below.
# TGT: human RXFP1 (Homo sapiens)
# TEST METHOD NOTES: RXFP1 Hu cAMP (Test A)
# Format: cell-based
# Parameters: expressed in transfected cells; host or cells: Jump-In T-REx CHO-K1 cells (ThermoFisher), induced with 10 ng/ml doxycycline for 24 h
# APPLIED CONDITIONS: RXFP1 Hu cAMP; read-out: Test A EC50
A value of pEC50 is the negative decimal logarithm of a concentration given in moles per litre.

Here are 2 molecules together with their reported answers.
- MOLECULE: "COc1cc(F)c(OCc2ccc(C(=O)O)cc2)cc1C(=O)N[C@@H]1[C@H]2CC[C@H](C2)[C@@H]1C(=O)Nc1cccc(S(=O)(=O)C(F)(F)F)c1 [Example 438]"
  TGT: "human RXFP1 (Homo sapiens)"
  MEASUREMENT: 6.59
- MOLECULE: "COc1cc(F)c(-c2ccc(C(=O)O)c(N(C)C)c2)cc1C(=O)N[C@@H]1[C@H]2CC[C@H](C2)[C@@H]1C(=O)Nc1cccc(S(=O)(=O)C(F)(F)F)c1 [Example 239]"
  TGT: "human RXFP1 (Homo sapiens)"
  MEASUREMENT: 6.89

Could you tell me which pEC50 is on file for COc1cc(F)c(-c2ccc(S(N)(=O)=O)cc2)cc1C(=O)N[C@@H]1[C@H]2CC[C@H](C2)[C@@H]1C(=O)Nc1cccc(S(=O)(=O)C(F)(F)F)c1 [Example 248] ?
6.66

---

# TEST METHOD NOTES: Human Liver Microsomal Stability (Test C)
# Format: in vitro ADME
# APPLIED CONDITIONS: human liver microsomes
Catalogue of microsomal CLint values

- COMPOUND: "COc1cc(C#N)c(OC2CCC(C)(C(=O)O)CC2)cc1C(=O)NC1C(C(=O)NCC2(C)CCC2)C2CCC1N2CCC(F)(F)F (single isomer, unassigned) [Example 536]"
  microsomal CLint: "250 µL/min/mg"

From here, focus on the item given below.
Which measured microsomal CLint value corresponds to COc1cc(F)c(O[C@H]2CC[C@@H](C(=O)O)CC2)cc1C(=O)N[C@@H]1[C@H]2CC[C@H](C2)[C@@H]1C(=O)Nc1ccc(C#N)c(C(F)(F)F)c1 [Example 28] ?
32 µL/min/mg

---

# TGT: human RXFP1 (Homo sapiens, UniProt Q9HBX9)
# Sequence (Q9HBX9 1-757): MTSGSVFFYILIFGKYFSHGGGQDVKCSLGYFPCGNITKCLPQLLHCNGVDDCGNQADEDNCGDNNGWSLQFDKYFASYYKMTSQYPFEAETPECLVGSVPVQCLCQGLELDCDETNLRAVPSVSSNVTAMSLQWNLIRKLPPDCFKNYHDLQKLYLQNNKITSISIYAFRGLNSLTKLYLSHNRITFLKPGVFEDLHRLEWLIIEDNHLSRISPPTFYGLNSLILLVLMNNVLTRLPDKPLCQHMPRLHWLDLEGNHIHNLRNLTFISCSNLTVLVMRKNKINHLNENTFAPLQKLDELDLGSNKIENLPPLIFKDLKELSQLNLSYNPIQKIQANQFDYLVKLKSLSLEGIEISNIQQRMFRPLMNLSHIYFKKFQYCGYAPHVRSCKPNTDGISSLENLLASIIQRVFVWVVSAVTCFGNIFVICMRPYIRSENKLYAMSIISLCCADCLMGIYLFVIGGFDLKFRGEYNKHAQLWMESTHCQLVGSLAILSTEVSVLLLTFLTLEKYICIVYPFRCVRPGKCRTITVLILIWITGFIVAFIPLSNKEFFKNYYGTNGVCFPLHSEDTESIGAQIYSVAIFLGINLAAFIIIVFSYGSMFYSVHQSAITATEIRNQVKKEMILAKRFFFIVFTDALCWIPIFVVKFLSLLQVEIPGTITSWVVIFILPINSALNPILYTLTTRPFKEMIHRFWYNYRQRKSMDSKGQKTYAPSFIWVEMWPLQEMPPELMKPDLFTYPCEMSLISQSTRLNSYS
# TEST METHOD NOTES: RXFP1 Hu cAMP (Test A)
# Type: cell-based
# Design: expressed in transfected cells; host or cells: Jump-In T-REx CHO-K1 cells (ThermoFisher), induced with 10 ng/ml doxycycline for 24 h
# APPLIED CONDITIONS: RXFP1 Hu cAMP; read-out: Test A EC50
Listed next: entries and their corresponding pEC50.
The meaning of pEC50 here: minus log10 of the concentration in molar units.

Answered cases to consult:
- COMPOUND: "COc1cc(F)c(-c2nc(C(=O)O)co2)cc1C(=O)N[C@H]1[C@@H](C(=O)Nc2cccc(S(=O)(=O)C(F)(F)F)c2)[C@@H]2C=C[C@H]1C2 (racemic)"
  MEASUREMENT: 4.96
- COMPOUND: "COc1cc(F)c(-c2ccc(C(=O)O)cc2)cc1C(=O)N[C@H]1[C@@H](C(=O)N[C@@H]2CCCN(S(=O)(=O)C(F)(F)F)C2)[C@@H]2C=C[C@H]1C2 (racemic)"
  MEASUREMENT: 5.12
- COMPOUND: "CCC(CC)CNC(=O)[C@H]1CCC[C@H]1NC(=O)c1cc(O[C@H]2CC[C@@](C)(C(=O)O)CC2)c(F)cc1OC"
  MEASUREMENT: 6.26
- COMPOUND: "COc1cc(F)c(O[C@H]2C[C@H](C(=O)O)C2)cc1C(=O)NC1[C@H]2CC[C@H](C2)[C@@H]1C(=O)Nc1cccc(S(=O)(=O)C(F)(F)F)c1 (stereo partly drawn)"
  MEASUREMENT: 6.27

Record request: pEC50 value, item CCC(C)(C)CNC(=O)[C@H]1CCC[C@H]1NC(=O)c1cc(O[C@H]2CC[C@@](C)(C(=O)O)CC2)c(F)cc1OC
6.59

Name the recorded pEC50 for COc1cc(C#N)c(OCCCC(C)(C)C(=O)O)cc1C(=O)N[C@@H]1[C@H]2CC[C@H](C2)[C@@H]1C(=O)NCC1(C)CCC1 .
6.89

---

Listed here: items and their measured microsomal CLint.
# TEST METHOD NOTES: Human Liver Microsomal Stability (Test C)
# Type: in vitro ADME
# APPLIED CONDITIONS: human, liver microsomes
Numbers only here, please. The scale is µL/min/mg.

Past entries and their recorded results:
- COMPOUND: "COc1cc(F)c(-c2cccc(C(=O)O)c2)cc1C(=O)N[C@@H]1[C@H](C(=O)Nc2cccc(S(=O)(=O)C(F)(F)F)c2)[C@H]2C=C[C@@H]1C2 (single isomer, unassigned)"
  METRIC NAME: "microsomal CLint"
  MEASUREMENT: 21
- COMPOUND: "COc1cc(C#N)c(O[C@H]2CC[C@@](C)(C(=O)O)CC2)cc1C(=O)N[C@@H]1[C@H]2CC[C@H](C2)[C@@H]1C(=O)NCC1(CO)CCCC1"
  METRIC NAME: "microsomal CLint"
  MEASUREMENT: 11
- COMPOUND: "COc1cc(F)c(-c2ncc(CCC(=O)O)s2)cc1C(=O)N[C@@H]1[C@H]2CC[C@H](C2)[C@@H]1C(=O)Nc1cccc(S(=O)(=O)C(F)(F)F)c1"
  METRIC NAME: "microsomal CLint"
  MEASUREMENT: 58
- COMPOUND: "CCC(CC)CNC(=O)[C@H]1[C@@H]2CC[C@@H](C2)[C@H]1NC(=O)c1cc(OC2CCC(C)(C(=O)O)CC2)c(F)cc1OC (stereo partly shown)"
  METRIC NAME: "microsomal CLint"
  MEASUREMENT: 33

Reported microsomal CLint, compound COc1cc(C)c(O[C@H]2CC[C@@H](C(=O)O)CC2)cc1C(=O)N[C@@H]1[C@H]2CC[C@H](C2)[C@@H]1C(=O)Nc1cccc(S(=O)(=O)C(F)(F)F)c1 : ____
74

# get_value(readout='microsomal CLint', item= COc1cc(F)c(O[C@H]2CC[C@@H](C(=O)O)CC2)cc1C(=O)N[C@@H]1[C@H]2CC[C@H](C2)[C@@H]1C(=O)Nc1cccc(Cl)c1 )
31

Give its microsomal CLint value. Item: COc1cc(C#N)c(O[C@H]2CC[C@@](C)(C(=O)O)CC2)cc1C(=O)N[C@@H]1[C@H]2CC[C@H](C2)[C@@H]1C(=O)NC(C)(C)C
6.2

Fill in: microsomal CLint of COc1cc(F)c(O[C@H]2CC[C@@H](C(N)=O)CC2)cc1C(=O)N[C@H]1[C@@H](C(=O)Nc2ccc(F)c(C(F)(F)F)c2)[C@@H]2C=C[C@H]1C2 is ___
200

Which microsomal CLint is reported for this compound? COc1cc(F)c(O[C@H]2CC[C@@H](C(=O)O)CC2)cc1C(=O)N[C@@H]1[C@H]2CC[C@H](C2)[C@@H]1C(=O)NC1CCCCC1
9.2
